- Tested on: Liver microsomes
- assay name: Intrinsic clearance in rat liver microsomes at 1 uM by LC/MS analysis
- Type: ADME, Microsome
Answer each item with its documented CLH.
Give the quantity in mL/min, number only.

Asked: Given the compound "CC(C)S(=O)(=O)NC[C@H]1CC[C@H](NC(=O)Cc2c[nH]c3ccccc23)CC1" , write its reported CLH.
Given back: 3.4

Asked: Given the compound "CC(C)S(=O)(=O)NC[C@H]1CC[C@H](NC(=O)Cn2ccc3cc(Cl)ccc32)CC1" , write its reported CLH.
Given back: 11

Asked: Given the compound "CC(C)S(=O)(=O)NC[C@H]1CC[C@H](NC(=O)Cn2ccc3cc(C#N)ccc32)CC1" , write its reported CLH.
Given back: 8.7

Asked: Given the compound "CC(C)S(=O)(=O)NC[C@H]1CC[C@H](NC(=O)CN2CCc3cc(F)ccc32)CC1" , write its reported CLH.
Given back: 21

Asked: Given the compound "CC(C)S(=O)(=O)NC[C@H]1CC[C@H](NC(=O)Cn2c(=O)oc3ccccc32)CC1" , write its reported CLH.
Given back: 1.9

Asked: Given the compound "CC(C)S(=O)(=O)NC[C@H]1CC[C@H](NC(=O)CN2CCc3cc(Cl)ccc32)CC1" , write its reported CLH.
Given back: 49

Asked: Given the compound "CC(C)S(=O)(=O)NC[C@H]1CC[C@H](NC(=O)Cn2ccc3cc(F)c(F)cc32)CC1" , write its reported CLH.
Given back: 28

Asked: Given the compound "Cc1cc2ccccc2n1CC(=O)N[C@H]1CC[C@H](CNS(=O)(=O)C(C)C)CC1" , write its reported CLH.
Given back: 49

Asked: Given the compound "CC(C)S(=O)(=O)NC[C@H]1CC[C@H](NC(=O)CN2CCOc3cc(Cl)ccc32)CC1" , write its reported CLH.
Given back: 35

Asked: Given the compound "Cc1ccc2c(c1)CCN2CC(=O)N[C@H]1CC[C@H](CNS(=O)(=O)C(C)C)CC1" , write its reported CLH.
Given back: 54

Asked: Given the compound "CC(C)S(=O)(=O)NC[C@H]1CC[C@H](NC(=O)CN2CCc3c2ccc(F)c3F)CC1" , write its reported CLH.
Given back: 39

Asked: Given the compound "CC(C)S(=O)(=O)NC[C@H]1CC[C@H](NC(=O)CCN2CCc3ccccc32)CC1" , write its reported CLH.
Given back: 7.1

Asked: Given the compound "CC(C)S(=O)(=O)NC[C@H]1CC[C@H](NC(=O)CN2CCCc3cc(Cl)ccc32)CC1" , write its reported CLH.
Given back: 36

Asked: Given the compound "CC(C)S(=O)(=O)NC[C@H]1CC[C@H](NC(=O)CN2C(=O)COc3cc(Cl)ccc32)CC1" , write its reported CLH.
Given back: 15

Asked: Given the compound "CC(C)S(=O)(=O)NC[C@H]1CC[C@H](NC(=O)Cn2ccc3ccc(Cl)cc32)CC1" , write its reported CLH.
Given back: 37

Asked: Given the compound "CC(C)S(=O)(=O)NC[C@H]1CC[C@H](NC(=O)Cn2c(=O)sc3cc(Cl)ccc32)CC1" , write its reported CLH.
Given back: 12
